assay.details: modulators of CIT2-GFP expression in yeast, confirmation, S. cerevisiae, GFP fusion, cherry picks, mother/daughter gates (AID 2274)
condition: S. cerevisiae CIT2-GFP strain, flow cytometry, 3 h; measured here: mother cell gate; at 10 µM; stronger effect = higher value
readout.label: GFP response, % of DMSO (%)
Kindly answer with a numeric value in %, unit omitted.

So what does the record say about GFP response, % of DMSO for `Cc1nn2c(NCCCN3CCOCC3)c3c(nc2c1-c1ccccc1)CCC3` ?
101

And for `O=C(N/N=C/c1ccc(F)cc1)c1ccc(Br)cc1` ?
87

And for `CCCc1ccc(OCC(=O)NNC(=S)NC(=O)c2ccco2)cc1` ?
99.3

And for `Oc1c(Br)cc(Br)cc1C=Nc1ccc2[nH]ncc2c1` ?
87.5

And for Cc1ccc(C(=O)N2c3ccccc3NC(=O)C2C)cc1 (stereo not given) ?
98.7

And for `Nc1ccc(S(=O)(=O)c2ccccc2)nc1` ?
94.4

And for `COc1ccc(-c2csc(NC(=O)CSc3nc(C)nc4sc(C(=O)O)c(C)c34)n2)cc1` ?
103

And for CCOC(=O)C(C(=O)OCC)C(C(=O)OCC)N1CCOCC1 (stereo not given) ?
72.5

And for `CCCn1c(=O)c(C(=O)Nc2ccccc2C(=O)OC)c(O)c2ccccc21` ?
93.4

And for `COCc1cc(=O)[nH]c(SCCS(=O)(=O)c2ccc(Cl)cc2Cl)n1` ?
116

And for `COc1ccc(Sc2ncnc3onc(C)c23)cc1` ?
96

And for `Cc1ccc(S(=O)(=O)N(Cc2ccc(F)cc2)Cc2ccco2)cc1` ?
98.2

And for `O=C(O)CCc1ccc(-c2ccc(Cl)cc2)o1` ?
94.4

And for `COc1ccc(Br)cc1/C=N/NC(=O)Cn1nnnc1N` ?
106

And for `Cc1c(Br)cc(C(=O)O)c(C)c1C` ?
99.3

And for `Oc1ccccc1/C=N/c1c(-c2ccco2)nc2ccccn12` ?
102

And for O=C(COc1ccccc1)Nc1c2c(nn1-c1ccccc1)CS(=O)C2 (stereo not given) ?
100

And for `CCOC(=O)C1(Cc2ccccc2Cl)CCN(C(=O)CCn2ccnc2C)CC1` ?
98

And for `Cc1n[nH]c(C)c1N1C(=O)c2cccc3c(Br)ccc(c23)C1=O` ?
94.5

And for `Cc1cccn2c(=O)c(/C=C(\C#N)C(=O)NCc3ccco3)c(N3CCC(C(N)=O)CC3)nc12` ?
92.8

----------
So I've got a bunch of molecules here, and I need their inhibition values.
system.tested: AP-2 complex subunit beta (Homo sapiens) (UniProt P63010)
Sequence (P63010 whole entry, looked up, one chain of several): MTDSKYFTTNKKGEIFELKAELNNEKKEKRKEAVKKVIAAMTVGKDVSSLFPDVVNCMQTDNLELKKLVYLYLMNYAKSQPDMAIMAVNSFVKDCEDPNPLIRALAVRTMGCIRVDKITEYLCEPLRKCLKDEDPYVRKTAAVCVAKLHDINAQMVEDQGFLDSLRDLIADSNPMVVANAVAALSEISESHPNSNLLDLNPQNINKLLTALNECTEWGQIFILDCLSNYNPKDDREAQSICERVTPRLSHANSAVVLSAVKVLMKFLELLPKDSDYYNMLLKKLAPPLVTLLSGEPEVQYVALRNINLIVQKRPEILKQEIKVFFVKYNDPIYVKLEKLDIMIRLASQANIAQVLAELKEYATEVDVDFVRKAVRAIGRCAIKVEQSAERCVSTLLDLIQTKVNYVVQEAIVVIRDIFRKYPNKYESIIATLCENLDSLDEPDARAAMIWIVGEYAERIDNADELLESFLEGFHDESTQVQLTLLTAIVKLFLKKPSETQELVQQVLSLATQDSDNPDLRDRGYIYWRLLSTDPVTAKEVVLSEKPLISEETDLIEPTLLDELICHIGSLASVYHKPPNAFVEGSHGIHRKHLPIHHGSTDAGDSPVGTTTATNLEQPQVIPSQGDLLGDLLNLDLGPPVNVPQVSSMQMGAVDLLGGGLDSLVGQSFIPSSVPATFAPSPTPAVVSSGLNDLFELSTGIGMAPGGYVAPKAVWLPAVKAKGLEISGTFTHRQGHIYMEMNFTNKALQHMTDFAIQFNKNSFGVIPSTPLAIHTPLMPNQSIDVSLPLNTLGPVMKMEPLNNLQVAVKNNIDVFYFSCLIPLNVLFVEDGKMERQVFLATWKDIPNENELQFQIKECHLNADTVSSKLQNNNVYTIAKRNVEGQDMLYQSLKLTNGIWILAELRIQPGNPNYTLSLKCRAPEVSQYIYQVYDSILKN
assay.details: inhibitors of arrestin peptide binding to AP2, pilot screen, biochemical, validation set, GST-AP2 beads, flow cytometry (AID 504541);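 note: AP2 carries R879A mutation and is captured from E. coli lysate; bead-bound FITC arrestin peptide fluorescence measuring arrestin peptide binding to AP2; 0% = DMSO wells and 100% = excess unlabeled arrestin peptide control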
condition: FITC arrestin peptide, at 10 µM, stronger effect = higher value, AP2 beta2 appendage fragment, R879A mutant
Kindly answer with a numeric value in %, unit omitted.

Missing value: inhibition, AP-2 complex subunit beta (Homo sapiens) (UniProt P63010), entry `CCS(=O)(=O)Nc1cc(OC)c(OC)cc1Cc1nccc2cc(OC)c(OC)cc12` . Fill in?
-7.26

And for Cn1cnc2c1c(=O)n(CC(O)CO)c(=O)n2C (stereo not drawn) ?
-6.49

And for `CN(C)CCCN1c2ccccc2CCc2ccc(Cl)cc21` ?
-2

And for CC/C(=C1/C(=O)CC(C)(C)C(C(=O)OC)C1=O)N1CCCC1 (stereo not drawn) ?
-0.06

And for `COc1ccc(CCCC(=O)O)c(C)c1` ?
5.62

And for `COc1cccc(N2C(=O)[C@H]3C(C(=O)c4cnccn4)=NN[C@H]3C2=O)c1` ?
-1.17

And for `COc1ccc([C@@H]2Sc3ccccc3N(CCN(C)C)C(=O)[C@@H]2OC(C)=O)cc1` ?
5.2

And for CC(C)C1Cc2[nH]c(=O)c(C(=O)O)cc2CO1 (stereo not drawn) ?
-1.16

And for `COc1ccc2nc(Nc3nc(CSc4ccc(C)cc4)cc(=O)[nH]3)nc(C)c2c1` ?
8.24

And for `NS(=O)(=O)c1cc2c(cc1Cl)NC(CSCc1ccccc1)=NS2(=O)=O` ?
-7.6

And for `CC1(C)O[C@@H]2C[C@H]3[C@@H]4CCC5=CC(=O)C=C[C@]5(C)[C@@]4(F)[C@@H](O)C[C@]3(C)[C@]2(C(=O)CO)O1` ?
-3.89

And for `O=c1oc2c(CN3CCN(CCO)CC3)c(O)ccc2cc1-c1ccccn1` ?
-9.17

And for `C[C@H](CS)C(=O)N1CCC[C@H]1C(=O)O` ?
-2.44

And for `COc1ccc(C(=O)OCc2cc3cccc(C)c3[nH]c2=O)cc1` ?
8.12

And for `Oc1ccc(Oc2ncc(Cl)cc2Cl)cc1` ?
-4.55

And for `Cc1nc2sccn2c(=O)c1CCN1CCC(=C(c2ccc(F)cc2)c2ccc(F)cc2)CC1` ?
-0.42

And for `Clc1ccccc1CN1CCc2sccc2C1` ?
59.3

And for `Cc1ccc(-n2ncc3c(Nc4cccc(C(=O)O)c4)ncnc32)cc1` ?
-0.33

And for `COc1ccc(/C=C2\CCc3ccccc3C2=O)c(OC)c1OC` ?
-2.94

And for Cc1cc(OC(C(=O)O)c2ccccc2)c2c(C)c(Cc3ccccc3)c(=O)oc2c1 (stereo not drawn) ?
1.35

And for `COc1ccccc1C(=O)c1cc2ccc(O)cc2oc1=O` ?
-2.87

And for CC(COc1ccccc1)N(CCCl)Cc1ccccc1 (stereo not drawn) ?
1.11

And for CC12CCC(C(=O)N3CCCCC3)([C@H](Br)C1=O)C2(C)C (stereo partly drawn) ?
-4.61

And for `OCCN(CCO)c1ccc2ccccc2c1` ?
-3.97

And for `COc1ccc(CC(=O)c2c(O)cc(O)cc2O)cc1OC` ?
49.5

And for O=C1NCC2=C1C(c1ccccc1)Nc1ccccc1N2 (stereo not drawn) ?
1.06

And for CCc1cccc2c1NC1(CCCC1)CC2C (stereo not drawn) ?
-1.05

And for CC(C)(C)c1ccc(C(O)CCCN2CCC(C(O)(c3ccccc3)c3ccccc3)CC2)cc1 (stereo not drawn) ?
2.19

And for `COc1ccc(C(=O)/C=C2/c3ccccc3CC(C)(C)N2C)cc1` ?
-8.96

And for `C[C@]12CC[C@@H]3c4ccc(OS(=O)(=O)O)cc4CC[C@H]3[C@@H]1CCC2=O` ?
-3.24

And for `CN(C)c1nc(N(C)C)nc(N(C)C)n1` ?
47.8

And for CC1(C)C2CCC1(C)C(OCC[N+](C)(C)CC(=O)OC1CCCCC1)C2 (stereo not drawn) ?
-2.94

And for `NC(=O)OCC(COC(N)=O)c1ccccc1` ?
-15.7

And for `O=c1cc(-c2ccc3c(c2)OCCO3)oc2ccc(Cl)cc12` ?
-6.8

And for `CN(C)CCOc1ccc(Cl)cc1C(C)(C)C` ?
-1.49

And for `CCC(=O)c1ccc(O)cc1` ?
-11.7

And for `CC[n+]1ccc2cc(OC)c(OC)cc2c1Cc1ccc(OC)c(OC)c1` ?
-12.4

And for `NS(=O)(=O)c1cc2c(cc1C(F)(F)F)NCNS2(=O)=O` ?
1.9

----------
assay.details: modulators of CIT2-GFP expression in yeast, confirmation, S. cerevisiae, GFP fusion, cherry picks, mother/daughter gates (AID 2274)
condition: S. cerevisiae CIT2-GFP strain, flow cytometry, 3 h; measured here: mother cell gate; at 10 µM; stronger effect = higher value
readout.label: GFP response, % of DMSO (%)
Kindly answer with a numeric value in %, unit omitted.

So what does the record say about GFP response, % of DMSO for `Cn1ncc(N2CCN(S(=O)(=O)c3ccc(Br)cc3)CC2)c(Cl)c1=O` ?
97.3

And for Cc1nc(SC2CC(=O)N(c3ccccc3)C2=O)nc2c1CCCC2 (centres undefined) ?
99.7

And for `N#C/C(=C\c1c(N2CCN(c3ccccc3)CC2)nc2ccccn2c1=O)C(N)=O` ?
88.2

And for `CNC(=O)/C(C#N)=C/c1c(N(Cc2ccccc2)Cc2ccccc2)nc2ccccn2c1=O` ?
99.3

----------
So I've got a bunch of compounds here, and I need their differentiation response values.
assay.details: promoters of myeloid differentiation in arrested cells, primary screen, cell-based, GFP/MAC1 double positive, flow cytometry, validation set (AID 588685);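 note: compound exposure lasts four days before antibody staining and flow analysis; 0% = DMSO wells and 100% = 5 µM fulvestrant positive control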
condition: ER-HoxA9 marrow cells, stronger effect = higher value, normalized: vehicle 0, fulvestrant 100
Kindly answer with a numeric value in %, unit omitted.

So what does the record say about differentiation response for `COC(=O)c1cc(-c2ccc(OC)c(OC)c2)on1` ?
31.5

And for `Cn1c(=O)c2c(nc(SCCN3CCCCC3)n2C)n(C)c1=O` ?
-11.9

And for Cn1cnc2c1c(=O)n(CC(O)CO)c(=O)n2C (stereo unspecified) ?
43.2

And for O=C(Nc1cccc(Cl)c1)N1CCN2C(=O)c3ccccc3C12c1ccccc1 (stereo unspecified) ?
-13.1

And for `CCCCC/C=C\C[C@H](O)/C=C/c1cccc(C[C@H](O)CCCCO)n1` ?
-2.46

And for `COc1cc(C(=O)OCCCN(C)C)cc(OC)c1OC` ?
-4.99

And for `CC(=O)[C@@]1(O)CC[C@H]2[C@@H]3CCC4=CC(=O)CC[C@]4(C)[C@H]3CC[C@@]21C` ?
40.1

And for `Nc1nc2c(ncn2COCCO)c(=O)[nH]1` ?
-4.91

And for CCOc1ccc(CC2c3cc(OCC)c(OCC)cc3CCN2C(=O)CN2CCN(C)CC2)cc1OCC (stereo unspecified) ?
-3.02

And for `COc1ccc2cc[nH]c2c1` ?
-10.9

And for `C/C(NC(=O)c1cccs1)=C1\C(=O)C[C@@H]2[C@H]1C2(C)C` ?
-11.9
